Target or system: Complement C1s subcomponent (Homo sapiens)
Sequence (P09871 16-437 limits assumed): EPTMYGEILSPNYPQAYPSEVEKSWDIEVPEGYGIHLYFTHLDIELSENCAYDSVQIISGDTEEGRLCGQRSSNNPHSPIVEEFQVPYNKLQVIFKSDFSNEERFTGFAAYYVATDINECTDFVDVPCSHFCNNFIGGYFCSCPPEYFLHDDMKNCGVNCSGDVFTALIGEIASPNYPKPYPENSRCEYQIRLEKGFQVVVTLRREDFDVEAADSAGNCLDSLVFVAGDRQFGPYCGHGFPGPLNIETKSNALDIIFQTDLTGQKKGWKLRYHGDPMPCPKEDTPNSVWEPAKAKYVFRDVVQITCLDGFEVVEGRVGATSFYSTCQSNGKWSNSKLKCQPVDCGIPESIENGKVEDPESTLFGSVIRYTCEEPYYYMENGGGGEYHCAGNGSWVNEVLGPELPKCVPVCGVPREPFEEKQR
Sequence (P09871 438-688 limits assumed): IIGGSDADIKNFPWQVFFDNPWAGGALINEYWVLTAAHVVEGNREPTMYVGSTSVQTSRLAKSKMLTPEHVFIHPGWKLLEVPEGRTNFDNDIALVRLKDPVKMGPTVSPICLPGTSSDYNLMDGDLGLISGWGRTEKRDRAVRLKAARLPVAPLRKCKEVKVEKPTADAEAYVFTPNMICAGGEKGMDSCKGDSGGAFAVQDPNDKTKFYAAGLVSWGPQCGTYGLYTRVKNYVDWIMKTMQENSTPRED
Experiment: Competitive inhibition of esterase activity of human activated C1s subunit of first complement component assessed as decrease in p-nitrophenol production using N-Z-L-Tyr-ONp as substrate by spectrophotometric analysis
pKi: −log10 of the molar value.
Readout type: pKi

[I] COc1cccc(C(=N)N)c1
[II] N=C(N)c1cccc(Br)c1
Query: Hi! Which is lower in terms of pKi, the first one I or the second one II ? Which one? Tell me its label.
Result: I
(I: 3.80, II: 4.00)

----------
Target or system: UniProt P00747
Sequence (P00747 97-580 limits assumed): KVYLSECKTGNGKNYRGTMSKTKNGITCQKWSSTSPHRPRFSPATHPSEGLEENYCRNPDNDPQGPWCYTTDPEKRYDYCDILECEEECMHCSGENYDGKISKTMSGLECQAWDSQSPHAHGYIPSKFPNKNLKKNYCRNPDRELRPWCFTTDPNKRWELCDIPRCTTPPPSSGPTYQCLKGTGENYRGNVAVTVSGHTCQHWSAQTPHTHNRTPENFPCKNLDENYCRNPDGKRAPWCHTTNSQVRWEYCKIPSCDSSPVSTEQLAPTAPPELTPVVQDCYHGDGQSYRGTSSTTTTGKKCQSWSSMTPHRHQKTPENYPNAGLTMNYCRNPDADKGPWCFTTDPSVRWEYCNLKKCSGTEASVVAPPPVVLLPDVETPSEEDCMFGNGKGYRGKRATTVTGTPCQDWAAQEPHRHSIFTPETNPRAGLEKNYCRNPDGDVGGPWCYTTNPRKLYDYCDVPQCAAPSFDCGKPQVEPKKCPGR
Sequence (P00747 581-810 limits assumed): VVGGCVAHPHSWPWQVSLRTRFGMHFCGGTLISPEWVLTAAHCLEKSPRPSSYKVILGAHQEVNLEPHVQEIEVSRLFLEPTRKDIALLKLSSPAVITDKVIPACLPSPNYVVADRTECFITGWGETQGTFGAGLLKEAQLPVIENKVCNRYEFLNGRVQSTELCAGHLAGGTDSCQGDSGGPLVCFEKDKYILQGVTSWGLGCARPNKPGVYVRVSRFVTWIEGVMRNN
Experiment: Competitive inhibition of esterase activity of human plasmin assessed as assessed as decrease in p-nitrophenol production using N-Z-L-Tyr-ONp as substrate by spectrophotometric analysis
Readout type: pKi
Schema: pKi number; meaning minus log10 of the concentration expressed in molar units.

Query: Tell me the measured pKi of `N=C(N)c1cccc(Cc2ccccc2)c1` , please.
Result: 3.20
